FYI, the data here is from patent US8633251B2.

# System: neurotoxicity (rotarod)
# testProtocol: Neurotoxicity test (TOX), rotarod, mice
# Format: in vivo
# testSettings: mouse, in vivo, 30 mg/kg
Could you please report measured TOX, No. of animals exhibiting motor impairment/no. of used animals for the items listed next?

Record excerpt, results attached:
| compound | measurementTarget | result |
| --- | --- | --- |
| Cc1cccc(C)c1OCCCNCC(C)O (racemic) [Compound 50] | neurotoxicity (rotarod) | 3/4 |
| Cc1cccc(C)c1OCCNC(C)CO.Cl (stereo not shown) [Compound 11a] | neurotoxicity (rotarod) | 3/4 |
| CC[C@@H](CO)NCCOc1cc(C)cc(C)c1C [Compound 41] | neurotoxicity (rotarod) | 3/4 |

Provide TOX, No. of animals exhibiting motor impairment/no. of used animals values for the following items, in order.
1. Cc1cccc(C)c1OCCN(C)C(C)CO.Cl (racemic) [Compound 14]
2. CCC(O)CNCCCOc1c(C)cccc1C (racemic) [Compound 54]
3. Cc1cccc(C)c1OCCCNC(C)CO (racemic) [Compound 51]
4. Cc1cccc(C)c1OCCNC(C)CO (stereo not shown) [Compound 11]

1. 1/4
2. 1/4
3. 2/4
4. 2/4

----------
Could you please report measured TOX, No. of animals exhibiting motor impairment/no. of used animals for the items listed next?
# Tested on: neurotoxicity (rotarod)
# testProtocol: Neurotoxicity test (TOX), rotarod, mice
# Type: in vivo
# testSettings: mice, dose 100 mg/kg b.w., time 0.5 h

| compound | measurementTarget | result |
| --- | --- | --- |
| CCC(CO)NCCOc1c(C)cccc1Cl (stereo not shown) | neurotoxicity (rotarod) | 8/8 |

Provide TOX, No. of animals exhibiting motor impairment/no. of used animals values for the following items, in order.
1. Cc1cc(C)c(C)c(OCCNCC(O)c2ccccc2)c1.Cl (stereo not shown)
2. CCC(CO)NCCOc1c(C)cccc1Cl.Cl (stereo not shown) [Compound 26a]
3. Cc1cccc(C)c1OCCN[C@H](C)CO
4. Cc1cccc(Cl)c1OCCNC(C)CO (stereo not shown)
5. Cc1cccc(Cl)c1OCCN[C@@H]1CCCC[C@H]1O (relative stereo)
6. Cc1cccc(OCCCNC(C)(C)CO)c1C

1: 8/8; 2: 8/8; 3: 8/8; 4: 5/8; 5: 8/8; 6: 8/8

Provide TOX, No. of animals exhibiting motor impairment/no. of used animals values for the following items, in order.
1. CC[C@H](CO)NCCOc1c(C)cccc1Cl
2. CC[C@@H](CO)NCCOc1c(C)cccc1Cl
3. Cc1ccc(C)c(OCCNCC(O)c2ccccc2)c1 (stereo not shown)

["8/8", "8/8", "7/8"]

----------
# Tested on: neurotoxicity (rotarod)
# testProtocol: Neurotoxicity test (TOX), rotarod, mice
# Type: in vivo
# testSettings: mice, dose 300 mg/kg b.w., time 0.5 h
Where a name gives a salt, the structure may show the parent alone.
measurementLabel: TOX, No. of animals exhibiting motor impairment/no. of used animals

| compound | measurementTarget | result |
| --- | --- | --- |
| Cc1cccc(C)c1OCCN[C@@H]1CCCC[C@H]1O (relative stereo) | neurotoxicity (rotarod) | 4/4 |
| Cc1cc(C)c(OCCNCC(O)c2ccccc2)c(C)c1 (centres unmarked) | neurotoxicity (rotarod) | 3/4 |
| Cc1cccc(C)c1OCCNCC(O)c1ccccc1 (centres unmarked) | neurotoxicity (rotarod) | 4/4 |
| CCC(CO)NCCOc1c(C)cccc1Cl.Cl (centres unmarked) [Compound 26a] | neurotoxicity (rotarod) | 4/4 |
| CC[C@H](CO)NCCOc1cc(C)cc(C)c1C | neurotoxicity (rotarod) | 4/4 |

Provide TOX, No. of animals exhibiting motor impairment/no. of used animals values for the following items, in order.
1. Cc1cccc(C)c1OCCNC(C)(C)CCO [Compound 15, hydrochloride]
2. CC[C@H](CO)NCCOc1c(C)cccc1Cl
3. CC[C@@H](CO)NCCOc1c(C)cccc1Cl.Cl [Compound 28a]

1. 7/8
2. 4/4
3. 4/4

----------
# Tested on: neurotoxicity (rotarod)
# testProtocol: Neurotoxicity test (TOX), rotarod, mice
# Assay type: in vivo
# testSettings: mice, dose 300 mg/kg b.w., 0.5 h
measurementLabel: TOX, No. of animals exhibiting motor impairment/no. of used animals

Record excerpt, results attached:
| compound | result |
| --- | --- |
| CNC(=O)C(C)NC(=O)COc1c(C)cccc1C (racemic) [Compound 67] | 4/4 |
| CCC(CO)NC(=O)COc1c(C)cccc1Cl (stereo not drawn) [Compound 73] | 4/4 |

Note: attention shifts to another entry.
Recorded TOX, No. of animals exhibiting motor impairment/no. of used animals for Cc1cccc(C)c1OCCCNC(C)(C)CO [Compound 53] , please?
4/4

----------
# System: neurotoxicity (rotarod)
# testProtocol: Neurotoxicity test (TOX), rotarod, mice
# Format: in vivo
# testSettings: mice, dose 300 mg/kg b.w., time 4 h
Structures can show the parent of a compound that is named as a salt.
Could you please report measured TOX, No. of animals exhibiting motor impairment/no. of used animals for the items listed next?

Record excerpt, results attached:
| compound | result |
| --- | --- |
| Cc1cccc(OCCCNCC(O)c2ccccc2)c1C (racemic) [Compound 49] | 2/2 |
| Cc1cc(C)c(C)c(OCCNCC(O)c2ccccc2)c1.Cl (centres unmarked) [Compound 42] | 1/1 |
| Cc1ccc(C)c(OCCNCC(O)c2ccccc2)c1 (centres unmarked) [Compound 9] | 1/2 |
| Cc1cccc(C)c1OCCN[C@H](C)CO [Compound 12a, hydrochloride] | 1/1 |

Recorded TOX, No. of animals exhibiting motor impairment/no. of used animals for Cc1cccc(C)c1OCCNCCCCCO [Compound 17, hydrochloride] , please?
1/1

----------
# System: neurotoxicity (rotarod)
# testProtocol: Neurotoxicity test (TOX), rotarod, mice
# Format: in vivo
# testSettings: mice, dose 100 mg/kg b.w., time 0.5 h
Could you please report measured TOX, No. of animals exhibiting motor impairment/no. of used animals for the items listed next?

Record excerpt, results attached:
| molecule | result |
| --- | --- |
| Cc1cccc(OCCNCC(O)c2ccccc2)c1C (stereo not shown) | 4/8 |
| CC[C@@H](CO)NCCOc1c(C)cccc1Cl.Cl [Compound 28a] | 5/8 |
| CC[C@H](CO)NCCOc1c(C)cccc1Cl.Cl [Compound 27a] | 7/8 |
| Cc1cccc(C)c1OCCN[C@@H]1CCCC[C@H]1O (relative stereo) | 7/8 |
| Cc1cccc(Cl)c1OCCNCC(O)c1ccccc1 (stereo not shown) | 8/8 |

Provide TOX, No. of animals exhibiting motor impairment/no. of used animals values for the following items, in order.
1. CCC(O)CNCCOc1c(C)cccc1Cl (stereo not shown)
2. Cc1cccc(C)c1OCCNC[C@@H](C)O
3. CC[C@H](CO)NCCOc1cc(C)cc(C)c1C
4. Cc1cc(C)c(OCCN[C@H](C)CO)c(C)c1
5. Cc1cccc(C)c1OCCNC[C@H](O)c1ccccc1

1. 8/8
2. 8/8
3. 4/8
4. 8/8
5. 8/8

----------
# System: neurotoxicity (rotarod)
# testProtocol: Neurotoxicity test (TOX), rotarod, mice
# Format: in vivo
# testSettings: mouse, in vivo, 300 mg/kg
Could you please report measured TOX, No. of animals exhibiting motor impairment/no. of used animals for the items listed next?

| compound | result |
| --- | --- |
| Cc1cccc(C)c1OCCCNC(C)CO (racemic) [Compound 51] | 4/4 |
| CCC(CO)NCCCOc1c(C)cccc1C.Cl (racemic) [Compound 55] | 4/4 |
| CCC(CO)NCCOc1cccc(C)c1C (centres unmarked) [Compound 2] | 4/4 |
| Cc1cccc(C)c1OCCNC(C)CO (centres unmarked) [Compound 11] | 4/4 |
| Cc1cccc(C)c1OCCN[C@@H](C)CO.Cl [Compound 13a] | 4/4 |
| Cc1cccc(Cl)c1OCCNC(C)(CO)CO [Compound 29] | 4/4 |

Provide TOX, No. of animals exhibiting motor impairment/no. of used animals values for the following items, in order.
1. Cc1cccc(OCCCNC(C)CO)c1C (racemic) [Compound 46]
2. Cc1cccc(C)c1OCCN[C@@H](C)CO [Compound 13]

1: 4/4; 2: 4/4

----------
Counter-ions that a name gives are not always drawn.
measurementLabel: melting point

| molecule | result |
| --- | --- |
| Cc1cccc(OCCCNC(C)(C)CO)c1C [Compound 47] | 128 to 130 °C |
| Cc1cccc(C)c1OCCNC(C)(C)CCO (as salt: hydrochloride) [Compound 15] | 170 to 172 °C |
| Cc1cccc(C)c1OCC(=O)N[C@H]1CC[C@H](O)CC1 [Compound 64] | 161 to 162 °C |
| Cc1cccc(C)c1OCCN[C@H](CO)C(C)C (as salt: hydrochloride) [Compound 16] | 162 to 164 °C |
| Cc1cccc(C)c1OCCCNC(C)(C)CO [Compound 53] | 73 to 75 °C |
| Cc1cccc(C)c1OCCCN[C@H](C)CO (as salt: hydrochloride) [Compound 52] | 119 to 120 °C |

Provide melting point values for the following items, in order.
1. CCC(NC(=O)COc1c(C)cccc1C)C(N)=O (racemic) [Compound 66]
2. Cc1cccc(C)c1OCCNC[C@H](O)c1ccccc1 [Compound 20]
3. Cc1cccc(C)c1OCCNC[C@@H](C)O [Compound 10]
4. Cc1cccc(C)c1OCCNCCCCCO (as salt: hydrochloride) [Compound 17]
5. Cc1cccc(C)c1OCC(=O)N[C@H](C)C(N)=O [Compound 65]

1: 182 to 184 °C; 2: 78 to 80 °C; 3: 76 to 77 °C; 4: 138 to 140 °C; 5: 177 to 178 °C
